Assay: NCI Yeast Anticancer Drug Screen. Data for the bub3 strain (AID 167)
Conditions: S. cerevisiae bub3 mutant strain, at 50.0 µM, hits give high values
The panel holds about 79,000 compounds, 15% with a hit somewhere; the sample as a whole holds those more often. Calls of active or inactive are those of the source. Cut-off read from the data, not from the text of the source: active = growth inhibition above about 70%; inactive = the rest. Where a SMILES comes first, the peptide text is derived from it. The star is where a group is joined. Boc = CC(C)(C)OC(=O)*; tBu = CC(C)(C)*
Listed below: growth inhibition values for each entry.

[[record]]
compound = "C#CC[N+](CC)(CC)CC"
endpoint_value = "-3.3% (inactive)"

[[record]]
compound = "CC(C)=C1C(=O)C[C@@]2(C)C[C@H]3OC3(C)CC/C=C(/C)CCC12 (some centres not stated)"
endpoint_value = "30.2% (inactive)"

[[record]]
compound = "COc1cc(C2=N/C(=C\\C=C\\c3ccccc3)C(=O)O2)cc(OC)c1OC"
endpoint_value = "18.8% (inactive)"

[[record]]
compound = "C1CCC2(CC1)SCCS2"
endpoint_value = "-9.4% (inactive)"

[[record]]
compound = "c1ccc(C(c2ccccc2)[n+]2ccccc2)cc1"
endpoint_value = "-5.5% (inactive)"

[[record]]
compound = "Cc1nc(-n2nc(-c3ccccc3)cc2-c2ccccc2)sc1C(=O)CC(=O)C(=O)Nc1ccc(Cl)c(Cl)c1"
endpoint_value = "48.5% (inactive)"

[[record]]
compound = "Nc1nc(SCC(=O)O)nc2nc[nH]c12"
endpoint_value = "-7.5% (inactive)"

[[record]]
compound = "COc1ccc(/C=C2\\CCC(C)(CN(C)C)C2=O)cc1 (configuration not stated)"
endpoint_value = "4.35% (inactive)"

[[record]]
compound = "CC(OC(C)(C)C)C(NC(=O)C(N)CCCCNC(=O)OC(C)(C)C)C(=O)NC(Cc1ccccc1)C(=O)O (configuration not stated) (H-Lys(Boc)-Thr(tBu)-Phe-OH; configuration not given here)"
endpoint_value = "-5% (inactive)"

[[record]]
compound = "CCCNC(=S)/N=C\\c1c(O)c2ccccc2oc1=O"
endpoint_value = "-0.2% (inactive)"


Request: // returns reported growth inhibition for input CCOC(=O)c1[nH]c(Cc2[nH]c(Cc3[nH]c(C(=O)OCC)c(C)c3C(=O)OCC)c(C(=O)OCC)c2C)c(C(=O)OCC)c1C
Result: 24.7% (inactive)

Request: // returns reported growth inhibition for input O=C(NCCNCCNC(=O)C(F)(F)F)C(F)(F)F
Result: -1.5% (inactive)

Request: // returns reported growth inhibition for input CC(C)(C)NC(=O)NCc1ccccc1Cl
Result: -0.75% (inactive)

====

Assay: NCI Yeast Anticancer Drug Screen. Data for the mlh1 rad18 strain (AID 175)
Conditions: S. cerevisiae mlh1 rad18 strain growth inhibition; at 50.0 µM; hits give high values
The panel holds about 79,000 compounds, 15% with a hit somewhere; the sample as a whole holds those more often. Where a SMILES comes first, the peptide text is derived from it. [ ]: non-standard residue; d: D form. Ac5c = NC1(C(=O)O)CCCC1
ATTRIBUTE MEASURED: growth inhibition (%)
Answer with a number only, understood to be in %.

[[record]]
compound = "COC(=O)[C@H](Cc1ccc(OC(C)(C)C)cc1)N[C@H](C)C(=O)N[C@@H](Cc1ccccc1)C(=O)OCc1ccccc1"
attribute_measured = "growth inhibition"
endpoint_value = 57

[[record]]
compound = "Cc1ccc(C(=O)O)c(=O)[nH]1"
attribute_measured = "growth inhibition"
endpoint_value = -2

[[record]]
compound = "COC(=O)C1(NC(=O)C(C)NC(=O)C(CCCCN)NC(=O)C(CC(C)C)NC(C)=O)CCCC1 (stereo not drawn) (Ac-LKA[Ac5c]-OMe; configuration not given here)"
attribute_measured = "growth inhibition"
endpoint_value = 8.05

[[record]]
compound = "Nc1ccc([N+](=O)[O-])cc1C(=O)Oc1ccccn1"
attribute_measured = "growth inhibition"
endpoint_value = 19

[[record]]
compound = "O=C1NCC2(CCN(Cc3ccccc3)CC2)N1c1ccccc1"
attribute_measured = "growth inhibition"
endpoint_value = 13.7


Request: // returns reported growth inhibition for input CSc1cccc(NC(=O)/C=C/C(=O)O)c1
Result: -0.9

====

Assay: NCI Yeast Anticancer Drug Screen. Data for the bub3 strain (AID 167)
Details: S. cerevisiae bub3 mutant strain, at 50.0 µM, hits give high values
About 79,000 compounds went through this panel and 15% of them were active in at least one assay; those are over-represented in the sample as a whole.
Listed below: growth inhibition values for each entry.
Answer with a number only, understood to be in %.

[[record]]
compound = "COc1c(NC(=O)C(Br)C(Br)C(=O)O)cccc1[N+](=O)[O-] (stereo not given)"
attribute_measured = "growth inhibition"
endpoint_value = -2.85

[[record]]
compound = "CC(=O)Nc1c(C)cc(C)cc1[N+](=O)[O-]"
attribute_measured = "growth inhibition"
endpoint_value = 6.4

[[record]]
compound = "CN(C)Cc1cc(C(=O)/C=C/c2c(Cl)cccc2Cl)cc(CN(C)C)c1O"
attribute_measured = "growth inhibition"
endpoint_value = -0.75

[[record]]
compound = "CC1=Nc2ccccc2NC(C)(C)C1"
attribute_measured = "growth inhibition"
endpoint_value = 15.2

[[record]]
compound = "COC(=O)C1C(=O)C=C(O)C2CCCCC21 (stereo not given)"
attribute_measured = "growth inhibition"
endpoint_value = -30.9


Request: // returns reported growth inhibition for input COCCCN1C(=O)C2c3[nH]c4ccccc4c3C3CCC(C(C)(C)C)CC3C2C1=O (stereo not given)
Result: 35.1

Request: // returns reported growth inhibition for input CCN(CC)CCOc1cccc(O)c1
Result: -8.3

Request: // returns reported growth inhibition for input CCN(CC)c1cccc(C(=O)OCCNCC(C)C)c1
Result: 49.1

Request: // returns reported growth inhibition for input O=C1Nc2c(Cl)cc(Cl)cc2C1=O
Result: 38

Request: // returns reported growth inhibition for input Cc1ccc(S(=O)(=O)NCc2cccc([N+](=O)[O-])c2)cc1
Result: 18.2

Request: // returns reported growth inhibition for input COC(=O)C1(O)CCC(C)CC1 (stereo not given)
Result: 2.1

====

Experiment: NCI Yeast Anticancer Drug Screen. Data for the bub3 strain (AID 167)
Details: S. cerevisiae bub3 mutant strain, at 50.0 µM, hits give high values
The panel holds about 79,000 compounds, 15% with a hit somewhere; the sample as a whole holds those more often.
ATTRIBUTE MEASURED: growth inhibition (%)
Answer with a number only, understood to be in %.

[[record]]
molecule = "CN(C)C(=O)c1ccc[n+](CC(=O)NCc2ccccc2)c1"
attribute_measured = "growth inhibition"
endpoint_value = 2.25

[[record]]
molecule = "Cc1ccc(S(=O)(=O)N2CCCSCCSCCCN(S(=O)(=O)c3ccc(C)cc3)CC2)cc1"
attribute_measured = "growth inhibition"
endpoint_value = -10.1

[[record]]
molecule = "COC(=O)c1ccccc1NC(=O)c1cc(C(=O)O)c(C(=O)Nc2ccccc2C(=O)OC)cc1C(=O)O"
attribute_measured = "growth inhibition"
endpoint_value = -3.7

[[record]]
molecule = "COC1(OC)c2no[n+]([O-])c2CCC1O (stereo unspecified)"
attribute_measured = "growth inhibition"
endpoint_value = 4

[[record]]
molecule = "O=C(NNC(=S)Nc1ccccc1)C12CC3CC(CC(C3)C1)C2"
attribute_measured = "growth inhibition"
endpoint_value = 35.5


Request: // returns reported growth inhibition for input Cc1ncc(CO)c(CN)c1O
Result: -28.4

Request: // returns reported growth inhibition for input CNSC1CCC2(C)C(=CCC3C2CCC2(C)C(C(C)CCCC(C)C)CCC32)C1 (stereo unspecified)
Result: -3

Request: // returns reported growth inhibition for input Oc1ccc(Cl)cc1N1CCOCC1
Result: -19.6

Request: // returns reported growth inhibition for input O=C(Oc1ccc2c(c1)CCN2C(=O)c1cc2c(cc1[N+](=O)[O-])OCO2)c1ccc2c(c1)OCO2
Result: -4.8

Request: // returns reported growth inhibition for input O=C1CCN2CCC(=O)c3c2c(cc2ccccc32)N1
Result: -12.7

Request: // returns reported growth inhibition for input CCOC(=O)C1=C(C)NC(=O)NC1c1ccc(N(C)C)cc1 (stereo unspecified)
Result: 30.6

====

Assay: NCI Yeast Anticancer Drug Screen. Data for the mec2-1 strain (AID 157)
Conditions: S. cerevisiae mec2-1 strain, at 50.0 µM, hits give high values
Compounds without any hit were thinned out: in the full panel of roughly 79,000, 15% have a hit.
Listed below: growth inhibition values for each entry.
Answer with a number only, understood to be in %.

Some molecules with recorded growth inhibition:
[[record]]
molecule = "CCn1c(SCC(=O)N/N=C/c2ccccc2)nc2ccccc2c1=O"
endpoint_value = 6.95

[[record]]
molecule = "N#CCCN(c1ccc(C=Nc2cccc([N+](=O)[O-])c2)cc1)S(=O)(=O)c1ccccc1"
endpoint_value = 5.65

[[record]]
molecule = "CCN(CC)c1ccc(CO)cc1"
endpoint_value = 4.8


Request: // returns reported growth inhibition for input OCC(CO)=C1c2ccccc2-c2ccccc21
Result: -6.2

Request: // returns reported growth inhibition for input CC(C)N(C=C(C#N)C#N)C(C)C
Result: 7.5

Request: // returns reported growth inhibition for input COc1ccc(OC)c(CCCCC(N)=O)c1
Result: -8.2

Request: // returns reported growth inhibition for input COc1ccc(C2c3cc4c(cc3OC(C)(OC)C2C)OCO4)c(OC)c1OC (stereo unspecified)
Result: 5.8

Request: // returns reported growth inhibition for input CCOC(=O)C12CCC(=O)C=C1[C@@H](C)C(=O)CC2 (stereo partly specified)
Result: -48.6
